- measured.target: GSTO1 (Homo sapiens, UniProt P78417)
- assay.explanation: In-gel fluorescence competitive CMFDA binding assay, recombinant GSTO1
- run.parameters: inhibition of CMFDA binding
Each entry gets not fulfilled if its GSTO binding assay (% Inhibition at 10 µM) Recombinant stays under 40%, and fulfilled if its GSTO binding assay (% Inhibition at 10 µM) Recombinant is 40% or above.

Here are 10 compounds together with their reported answers.
[
  {
    "compound": "CN(c1ccccc1)S(=O)(=O)c1cccc(NC(=O)CCl)c1 [C1-28]",
    "assigned.label": "fulfilled"
  },
  {
    "compound": "CC(C)C(NC(=O)CCl)c1ccc2c(c1)OCCO2 (centres unmarked) [C3-8]",
    "assigned.label": "not fulfilled"
  },
  {
    "compound": "CN(CC(=O)N1CCOCC1)C(=O)CCl [C4-12]",
    "assigned.label": "not fulfilled"
  },
  {
    "compound": "CCN(c1ccc(NC(=O)CCl)cc1)C(C)C [C1-15]",
    "assigned.label": "fulfilled"
  },
  {
    "compound": "O=C(CCl)N1CCC(Cc2ccccc2)CC1 [C5-1]",
    "assigned.label": "fulfilled"
  },
  {
    "compound": "O=C(CCl)Nc1ccccc1C(=O)NCc1ccco1 [C1-13]",
    "assigned.label": "not fulfilled"
  },
  {
    "compound": "CCN(CC)c1ccc(S(=O)(=O)N2CCOCC2)cc1NC(=O)CCl [C1-32]",
    "assigned.label": "not fulfilled"
  },
  {
    "compound": "O=C(CCl)Nc1ncc(Cc2ccccc2Cl)s1 [C2-26]",
    "assigned.label": "fulfilled"
  },
  {
    "compound": "O=C(CCl)NNC(=O)c1cc2c(s1)CCCC2 [C3-23]",
    "assigned.label": "not fulfilled"
  },
  {
    "compound": "O=C(CCl)NCc1cc([N+](=O)[O-])ccc1O [C3-3]",
    "assigned.label": "fulfilled"
  }
]

Query: Could you please find out whether CC(C)(C)c1ccc(C(=O)NNC(=O)CCl)cc1 [C3-20] has GSTO binding assay (% Inhibition at 10 µM) Recombinant that meets 40% or exceeds it?
Response: not fulfilled

---

- measured.target: GSTO1 (Homo sapiens)
- assay.explanation: In-gel fluorescence competitive CMFDA binding assay, recombinant GSTO1
- run.parameters: inhibition of CMFDA binding
# GSTO binding assay (% Inhibition at 10 µM) Recombinant per record follows
Report the value in % with no unit label.

Would you please look over these solved cases?
[
  {
    "compound": "CCOC(=O)c1cc(C(C)C)sc1NC(=O)CCl [C2-8]",
    "measured.target": "GSTO1 (Homo sapiens)",
    "recorded.number": 39.2
  },
  {
    "compound": "CCOC(=O)c1c(-c2ccccc2)csc1NC(=S)NC(=O)CCl [C3-26]",
    "measured.target": "GSTO1 (Homo sapiens)",
    "recorded.number": 68.2
  },
  {
    "compound": "CCOC(=O)c1c(NC(=O)CCl)sc2c1CCCCC2 [C2-16]",
    "measured.target": "GSTO1 (Homo sapiens)",
    "recorded.number": 54.7
  },
  {
    "compound": "O=C(CCl)NCCN1C(=O)SC(=Cc2ccccc2F)C1=O [C3-32]",
    "measured.target": "GSTO1 (Homo sapiens)",
    "recorded.number": 23.6
  },
  {
    "compound": "CCN(C(=O)CCl)C1CCS(=O)(=O)C1 (stereo not shown) [C4-4]",
    "measured.target": "GSTO1 (Homo sapiens)",
    "recorded.number": 5.9
  }
]

In plain terms, O=C(CCl)NNc1c(Cl)cc(Cl)cc1Cl [C3-17] has a documented GSTO binding assay (% Inhibition at 10 µM) Recombinant of 57.6

Entry CC(=O)N1CCc2cc(NC(=O)CCl)ccc21 [C1-22] — recorded GSTO binding assay (% Inhibition at 10 µM) Recombinant = 25.1

GSTO binding assay (% Inhibition at 10 µM) Recombinant for COc1cc(OC)c(OC)cc1CNC(=O)CCl [C3-4] is -2.6

// O=C(CCl)N1N=C(c2cccs2)CC1c1ccco1 (stereo not shown) [C5-22] : GSTO binding assay (% Inhibition at 10 µM) Recombinant value = 68.6

Please fill in: GSTO binding assay (% Inhibition at 10 µM) Recombinant reported for Cc1cccc(C(O)(C(=O)NN(C(=O)CCl)C2CCCCC2)c2cccc(C)c2)c1 [C4-21] = 9.8

---

- measured.target: endogenous GSTO1 (Homo sapiens, UniProt P78417)
- assay.explanation: In-gel fluorescence competitive CMFDA binding assay, endogenous GSTO1 in HCT116
- run.parameters: 10 µM; inhibition of CMFDA binding, HCT116
Hi, to clarify the labels: fulfilled covers GSTO binding assay (% Inhibition at 10 µM) Endogenous from 50% upward, not fulfilled covers anything below 50%.

[
  {
    "compound": "O=C(CCl)Nc1ccccc1N1CCCC1=O [C1-18]",
    "assigned.label": "fulfilled"
  }
]

Query: Please indicate if the recorded GSTO binding assay (% Inhibition at 10 µM) Endogenous for CC(NC(=O)CCl)c1cc2ccccc2o1 (centres unmarked) [C3-29] meets or exceeds 50%.
Response: fulfilled

Query: Decide: GSTO binding assay (% Inhibition at 10 µM) Endogenous of CCOC(=O)c1c(NC(=O)CCl)sc(C(=O)Nc2ccc(C)cc2C)c1C [C2-14] >= 50%?
Response: fulfilled

Query: Evaluate O=C(CCl)N1CCN(Cc2ccccc2F)CC1 [C5-7] : GSTO binding assay (% Inhibition at 10 µM) Endogenous at minimum 50%?
Response: fulfilled

Query: Answer whether GSTO binding assay (% Inhibition at 10 µM) Endogenous of CC(=O)c1cc2c(cc1NC(=O)CCl)OCO2 [C1-9] is greater than or equal to 50%.
Response: not fulfilled

---

- measured.target: UniProt P78417
- assay.explanation: GSTO1 substrate assay (reduction of 4-NPG)
- run.parameters: 10 µM
Given measured GSTO substrate assay % Inhibition at 10 µM, output true if it is greater than or equal to 20% and false if not.

[
  {
    "compound": "O=C(CCl)Nc1ncc(Cc2ccccc2Cl)s1 [C2-26]",
    "assigned.label": "true"
  },
  {
    "compound": "O=C(CCl)N1N=C(c2cccs2)CC1c1ccco1 (centres unmarked) [C5-22]",
    "assigned.label": "false"
  },
  {
    "compound": "CC(C)C(NC(=O)CCl)c1ccc2c(c1)OCCO2 (centres unmarked) [C3-8]",
    "assigned.label": "false"
  },
  {
    "compound": "COc1cc(CCNC(=O)CCl)ccc1OC(F)F [C3-11]",
    "assigned.label": "false"
  },
  {
    "compound": "Cc1cccc(C(O)(C(=O)NN(C(=O)CCl)C2CCCCC2)c2cccc(C)c2)c1 [C4-21]",
    "assigned.label": "true"
  },
  {
    "compound": "COc1cc(NC(=O)CCl)c(Cl)cc1C(=O)O [C1-10]",
    "assigned.label": "true"
  },
  {
    "compound": "COC(=O)c1ccc(C(=O)OC)c(NC(=O)CCl)c1 [C1-8]",
    "assigned.label": "true"
  },
  {
    "compound": "CN(C)S(=O)(=O)c1ccc2c(c1)CCCN2C(=O)CCl [C5-18]",
    "assigned.label": "true"
  },
  {
    "compound": "O=C(CCl)Nc1cc([N+](=O)[O-])ccc1Nc1ccc(F)cc1 [C1-4]",
    "assigned.label": "true"
  },
  {
    "compound": "CCOC(=O)c1c(NC(=O)CCl)sc(C(=O)Nc2ccc(C)cc2C)c1C [C2-14]",
    "assigned.label": "false"
  }
]

Pending compound:
Query: // inclusive: GSTO substrate assay % Inhibition at 10 µM at least 20%? input: CN(CC(=O)Nc1c(Cl)cccc1Cl)C(=O)CCl [C4-7]
Response: false

---

- measured.target: GSTO1 (Homo sapiens, UniProt P78417)
- Sequence (P78417 1-241): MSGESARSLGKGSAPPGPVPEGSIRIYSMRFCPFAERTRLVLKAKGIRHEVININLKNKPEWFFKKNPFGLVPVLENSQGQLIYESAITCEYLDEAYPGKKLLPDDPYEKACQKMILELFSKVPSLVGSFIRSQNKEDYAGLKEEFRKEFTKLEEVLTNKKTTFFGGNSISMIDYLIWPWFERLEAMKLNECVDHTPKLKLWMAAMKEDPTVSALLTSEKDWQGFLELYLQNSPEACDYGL
- assay.explanation: GSTO1 substrate assay (reduction of 4-NPG)
- run.parameters: Substrate assay IC50, pilot screening
Recorded pIC50 values for a group of compounds are listed next.
Please express pIC50 as -log10 of the molar concentration.

Below are worked cases with known answers.
[
  {
    "smiles.representation": "O=C(CCl)Nc1c(F)cc(F)cc1[N+](=O)[O-]",
    "pIC50": 5.77
  },
  {
    "smiles.representation": "O=C(CCl)Nc1cc(F)c(F)cc1NC(=O)CCl",
    "pIC50": 5.51
  },
  {
    "smiles.representation": "O=C(CCl)Nc1ccc(F)cc1F",
    "pIC50": 5.46
  },
  {
    "smiles.representation": "O=C(CCl)Nc1ccccc1NC(=O)CCl",
    "pIC50": 4.09
  },
  {
    "smiles.representation": "O=C(CCl)Nc1cc(F)cc(F)c1NC(=O)CCl",
    "pIC50": 5.41
  }
]

Kindly consider the entry below.
Form: compound = O=C(CCl)Nc1cc(F)c(F)cc1[N+](=O)[O-] ; pIC50 = 6.15

Reference source: paper PMC5059489
